Test system: NCI-H226 lung
Test: NCI tumour cell line growth inhibition, 48 h
property.name: TGI

In one line, give reported TGI of the entry CCCCOCc1cc(CN2CCN(C)CC2)c(O)c2ncccc12 . 88.4 µM

In one line, give reported TGI of the entry Cc1ccc(N=NN(C)C(=O)C(C)N)cc1 (stereo unspecified) . > 100 µM

In one line, give reported TGI of the entry C/C=C/[C@H]1O[C@@H]2C(=C[C@H]1O)C(=O)O[C@H]2C . 48.1 µM

In one line, give reported TGI of the entry NC(N)=Nc1nc2ccc([N+](=O)[O-])cc2[nH]1 . > 100 µM

In one line, give reported TGI of the entry O=C(O)C1(Cc2ccc3c(c2)CCC3)Cc2ccccc2C1 . > 100 µM

In one line, give reported TGI of the entry Cc1ccc(C(O)(c2ccc(C)cc2)c2ccccn2)cc1 . > 100 µM

###

System: 786-0 renal
Assay: NCI tumour cell line growth inhibition, 48 h
Residues, ends and D or L forms follow the SMILES beside them. *: point of attachment. Boc = CC(C)(C)OC(=O)*; OBn = c1ccc(CO*)cc1
property.name: TGI

In one line, give reported TGI of the entry CCOC(=O)C1=C(C)N(NC(N)=O)C(C)(O)C12CCOC2=O (configuration not stated) . > 100 µM

In one line, give reported TGI of the entry CCOC(=O)c1nc2ccccc2nc1Oc1cc(OC)c(OC)c(OC)c1 . > 100 µM

In one line, give reported TGI of the entry NC(Cc1ccc(S(=O)(=O)O)cc1)C(=O)NC(Cc1ccc(S(=O)(=O)O)cc1)C(=O)NC(Cc1ccc(S(=O)(=O)O)cc1)C(=O)O (configuration not stated) . > 100 µM

In one line, give reported TGI of the entry CCCCN(CCCC)CCC(O)c1cc2c(Cl)cc(Cl)cc2c2cc(C(F)(F)F)ccc12 (configuration not stated) . 25.7 µM

In one line, give reported TGI of the entry CC1(S)CC2C(CC1Sc1ccccc1)C2(C)C (configuration not stated) . > 100 µM

In one line, give reported TGI of the entry CCOC(=O)c1c(C)nc2c(c1N)CC(=O)N2CCc1ccccc1 . 17.1 µM

In one line, give reported TGI of the entry COc1ccc(/C=C2\CN(Cc3cn(CCNc4ccnc5cc(Cl)ccc45)nn3)C/C(=C\c3ccc(OC)c(OC)c3)C2=O)cc1OC . 12.4 µM

In one line, give reported TGI of the entry NC(=O)/C=c1/c2ccccc2n2nc3ccccc3c12 . 77.4 µM

In one line, give reported TGI of the entry O=c1c(NO)c([N+](=O)[O-])cnn1-c1ccccc1 . 12.7 µM

In one line, give reported TGI of the entry CC1=C(C(=O)Nc2ccc([N+](=O)[O-])cc2)C(c2ccc3c(c2)OCO3)C(C(=O)Nc2ccc([N+](=O)[O-])cc2)=C(C)N1 . > 100 µM

In one line, give reported TGI of the entry O=S(=O)(c1ccccc1)n1cc(C[P+](c2ccccc2)(c2ccccc2)c2ccccc2)c2ccccc21 . 16.3 µM

In one line, give reported TGI of the entry O=C1c2ccccc2CC12Cc1ccccc1C2 . > 100 µM

In one line, give reported TGI of the entry CC(C)(C)OC(=O)c1ccc(NCC2=CC(=O)C=CC2=O)cc1 . 22 µM

In one line, give reported TGI of the entry O=C1N[C@@H]2c3c(Br)sc(Br)c3C(=O)[C@@H]2O1 . 19.8 µM

In one line, give reported TGI of the entry Cc1ccn2c(CCc3nnc4cc(C)ccn34)nnc2c1 . > 100 µM

In one line, give reported TGI of the entry O=[N+]([O-])c1ccccc1C=NC12CC3CC(CC(C3)C1)C2 . > 100 µM

In one line, give reported TGI of the entry CC(=O)c1cccc(NC(=O)C(=O)C(c2cnc3ccc([N+](=O)[O-])cc3n2)[N+](=O)[O-])c1 (configuration not stated) . > 100 µM

In one line, give reported TGI of the entry COC(=O)C1=C(C(=O)OC)SC(=C2S[C@@H]3[C@@H]4C[C@H]([C@@H]3S2)[C@H]2C(=O)OC(=O)[C@@H]42)S1 . > 100 µM

In one line, give reported TGI of the entry CCCCc1n(Cc2ccc3ccccc3c2)cc[n+]1Cc1ccc2ccccc2c1 . 2.97 µM

In one line, give reported TGI of the entry CC(C)CC(NC(=O)OC(C)(C)C)C(=O)N1CCCC1C(=O)OCc1ccccc1 (stereo not drawn) (Boc-Leu-Pro-OBn; configuration not given here) . > 100 µM

In one line, give reported TGI of the entry CC1Cc2cc(O)c(O)cc2-c2cc(O)c(O)cc2CC1C (configuration not stated) . 39.9 µM

In one line, give reported TGI of the entry CCCCNC(=O)Oc1ccc(/C(=C(/C)Cc2ccc(OC)cc2)c2ccc(OCCN3CCCC3)cc2)cc1 . 2.91 µM

In one line, give reported TGI of the entry O=[N+]([O-])c1ccc(/C=C/c2csnn2)cc1 . > 100 µM

In one line, give reported TGI of the entry COc1ccc(/C=C2\Sc3nnc(CNc4ccc(Cl)cc4)n3N=C2c2cc(F)c(Cl)cc2Cl)cc1OC . > 100 µM

In one line, give reported TGI of the entry COc1ccc2c(Cl)cc(NC(=O)Nc3c(C)cccc3C)nc2c1 . > 100 µM

In one line, give reported TGI of the entry NC(=O)N/N=C(/Cc1nc2ccc(C(=O)c3ccccc3)cc2[nH]c1=O)C(=O)Nc1ccc(C(F)(F)F)cc1[N+](=O)[O-] . > 100 µM

In one line, give reported TGI of the entry COC(=O)C(CBr)CBr . 8.91 µM

In one line, give reported TGI of the entry Cn1c2ccccc2c2c3[nH][nH]c(=O)c3c3c4ccccc4[nH]c3c21 . 31.6 µM

In one line, give reported TGI of the entry O=C(CC1(O)C(=O)Nc2ccccc21)c1ccc(O)cc1 (configuration not stated) . > 100 µM

In one line, give reported TGI of the entry CN(C)S(=O)(=O)n1cnc(CO)c1 . > 100 µM

In one line, give reported TGI of the entry C/C(=N\NC(=S)N1CC2CCC(CC2)C1)c1cccc(C)n1 . 11.7 µM

In one line, give reported TGI of the entry Oc1cccc(/C=N/Nc2nnc(N/N=C/c3cccc(O)c3)c3ccccc23)c1 . 38.5 µM

In one line, give reported TGI of the entry CCOC(=O)[C@H]1Nc2ccc([N+](=O)[O-])cc2C2c3ccccc3CC21 (some centres not stated) . 43.9 µM

In one line, give reported TGI of the entry CCC(=O)Nc1ccccc1C#C/C=C\C#Cc1ccccc1C(F)(F)F . 23.2 µM

In one line, give reported TGI of the entry COc1ccc(/C=C2/NC(=S)N=C2Cl)cc1 . > 100 µM

In one line, give reported TGI of the entry CC1=C(Cl)C=CP(=O)(OC(C)C)C1 (configuration not stated) . > 100 µM

In one line, give reported TGI of the entry COC(=O)c1ccccc1/C=C1\Cc2c(C)cc(C)cc2C1=O . > 100 µM

In one line, give reported TGI of the entry C=C(CC(=O)O)C(=O)O (tested in a mixture with another compound) . > 50 µg/mL

In one line, give reported TGI of the entry N=C(N)c1ccc(NCCOCCNc2ccc(C(=N)N)cc2)cc1 . > 100 µM

In one line, give reported TGI of the entry Clc1ccc2nc(-c3ccccc3)nc(Cl)c2c1 . > 100 µM

In one line, give reported TGI of the entry c1cncc(C2Nc3cccc4cccc(c34)N2)c1 . > 100 µM

In one line, give reported TGI of the entry CCCCCCCCCCCCOc1ccc(/C=C/C2=[N+](CCCl)CCO2)cc1 . 42.7 µM

###

Could you please report measured TGI for the items listed next?
System: SNB-75 CNS
Assay: NCI tumour cell line growth inhibition, 48 h
Respond numerically; units are µM and should not be typed.

In one line, give reported TGI of the entry O=C1N[C@@H]2c3c(Br)sc(Br)c3C(=O)[C@@H]2O1 . 16.7

In one line, give reported TGI of the entry O/N=C(\CC(O)(C(F)(F)F)C(F)(F)F)c1cccc(Cl)c1 . 57.6

In one line, give reported TGI of the entry C/C(=N\NC(=S)N1CCCCCCCCCCCC1)c1ccccn1 . 1

In one line, give reported TGI of the entry CC(=O)C(CN(C)C)C(c1ccccc1)c1c(O)c2ccccc2oc1=O (centres undefined) . 88.5

###

Test system: SNB-19 CNS
Assay: NCI tumour cell line growth inhibition, 48 h
Where a SMILES comes first, the peptide text is derived from it. [ ]: non-standard residue; d: D form. The star is where a group is joined. ξ: configuration not given here. ξF = NC(Cc1ccccc1)C(=O)O; Cbz = O=C(OCc1ccccc1)*; Aib = CC(C)(N)C(=O)O
property.name: TGI

Name the recorded TGI of COC(=O)C(C)(C)NC(=O)C(Cc1ccccc1)NC(=O)C(C)(C)NC(=O)OCc1ccccc1 (centres undefined) (Cbz-[Aib]-[ξF]-[Aib]-OMe) , assay system SNB-19 CNS. > 100 µM

Name the recorded TGI of CC(C)CC(NC(=O)C(Cc1ccccc1)NC(=O)C(Cc1c[nH]c2ccccc12)NC(=O)CNC(=O)C(N)Cc1ccc(O)cc1)C(=O)O (centres undefined) (H-YGWFL-OH; configuration not given here) , assay system SNB-19 CNS. > 100 µM

Name the recorded TGI of CCOC(=O)C1=C(C)N(NC(N)=O)C(C)(O)C12CCOC2=O (centres undefined) , assay system SNB-19 CNS. > 100 µM

Name the recorded TGI of COC(=O)C1=C(C(=O)OC)SC(=C2S[C@@H]3[C@@H]4C[C@H]([C@@H]3S2)[C@H]2C(=O)OC(=O)[C@@H]42)S1 , assay system SNB-19 CNS. > 100 µM

Name the recorded TGI of CC(=O)c1cccc(NC(=O)C(=O)C(c2cnc3ccc([N+](=O)[O-])cc3n2)[N+](=O)[O-])c1 (centres undefined) , assay system SNB-19 CNS. > 100 µM

Name the recorded TGI of CC1=C(C(=O)Nc2ccc([N+](=O)[O-])cc2)C(c2ccc3c(c2)OCO3)C(C(=O)Nc2ccc([N+](=O)[O-])cc2)=C(C)N1 , assay system SNB-19 CNS. > 100 µM

Name the recorded TGI of NC(=O)N/N=C(/Cc1nc2ccc(C(=O)c3ccccc3)cc2[nH]c1=O)C(=O)Nc1ccc(C(F)(F)F)cc1[N+](=O)[O-] , assay system SNB-19 CNS. > 100 µM

Name the recorded TGI of CCOC(=N)CC(=O)Nc1cccc(Cl)c1 , assay system SNB-19 CNS. > 100 µM

Name the recorded TGI of CCN(CC)c1ccc2cc(-c3nnc(-c4ccccc4O)o3)c(=O)oc2c1 , assay system SNB-19 CNS. 26.9 µM

Name the recorded TGI of CCOC(=O)c1oc2ccc([N+](=O)[O-])c3c2c1CCC3 , assay system SNB-19 CNS. > 89.6 µM

Name the recorded TGI of O=c1c2cc(I)ccc2nc(SCc2n[nH]c(=S)o2)n1Cc1ccccc1 , assay system SNB-19 CNS. 55.5 µM

Name the recorded TGI of Oc1ccccc1C1=NOC(c2ccc(C(F)(F)F)cc2)C1 (centres undefined) , assay system SNB-19 CNS. > 50 µM

Name the recorded TGI of CC12CO[C@@](C)(CC(S(=O)(=O)c3ccccc3)C1)O2 (some centres undefined) , assay system SNB-19 CNS. > 100 µM

Name the recorded TGI of CN1C=Cc2nccc3cc4c(c1c23)OCO4 , assay system SNB-19 CNS. 41 µM

Name the recorded TGI of CCCCNC(=O)Oc1ccc(/C(=C(/C)Cc2ccc(OC)cc2)c2ccc(OCCN3CCCC3)cc2)cc1 , assay system SNB-19 CNS. 11.4 µM

Name the recorded TGI of O=[N+]([O-])C(=C1Nc2ccccc2N1)/C(Cl)=C(/Cl)N1CCOCC1 , assay system SNB-19 CNS. > 100 µM

Name the recorded TGI of O=[N+]([O-])c1ccc(/C=C/c2csnn2)cc1 , assay system SNB-19 CNS. > 100 µM

Name the recorded TGI of Oc1cccc2cc(Br)cnc12 , assay system SNB-19 CNS. > 100 µM

Name the recorded TGI of CCN(CC)CCN(Cc1ccc(F)cc1)c1ccc(CO)c(Cl)c1 , assay system SNB-19 CNS. > 100 µM
